# Study Target: UniProtKB P47898
# Sequence (P47898 whole entry): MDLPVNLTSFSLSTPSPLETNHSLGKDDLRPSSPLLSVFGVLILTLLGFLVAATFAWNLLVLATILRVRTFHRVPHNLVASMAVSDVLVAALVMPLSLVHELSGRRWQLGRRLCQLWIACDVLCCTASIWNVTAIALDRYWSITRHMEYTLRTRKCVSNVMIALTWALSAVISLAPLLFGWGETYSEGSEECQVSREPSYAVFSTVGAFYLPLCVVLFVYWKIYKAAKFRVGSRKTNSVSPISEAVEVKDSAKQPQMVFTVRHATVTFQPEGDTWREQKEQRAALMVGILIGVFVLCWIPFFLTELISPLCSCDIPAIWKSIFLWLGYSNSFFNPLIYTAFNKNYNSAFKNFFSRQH
Counter-ions that a name gives are not always drawn.
Each item that follows carries a reported Ki.
Endpoint Name: Ki

[[record]]
compound = "N#Cc1ccc2ccc(C(=O)N=C(N)N)cc2c1C1=CCOCC1 [Example 16]"
study_target = "UniProtKB P47898"
test_result = "0.03 to 0.3 µM"

[[record]]
compound = "COc1cccc(F)c1-c1c(C#N)ccc2ccc(C(=O)N=C(N)N)cc12 [Example 8]"
study_target = "UniProtKB P47898"
test_result = "0.001 to 0.03 µM"

[[record]]
compound = "COc1cc(C#N)ccc1-c1c(C#N)ccc2ccc(C(=O)N=C(N)N)cc12 [Example 15]"
study_target = "UniProtKB P47898"
test_result = "0.03 to 0.3 µM"

[[record]]
compound = "N#Cc1ccc2ccc(C(=O)N=C(N)N)cc2c1-c1c(F)cccc1Cl [Example 1, hydrochloride]"
study_target = "UniProtKB P47898"
test_result = "0.0043 µM"

[[record]]
compound = "N#Cc1cc(F)c(-c2c(F)cc(F)cc2F)c2cc(C(=O)N=C(N)N)ccc12 [Example 5]"
study_target = "UniProtKB P47898"
test_result = "0.001 to 0.03 µM"

[[record]]
compound = "N#Cc1ccc2ccc(C(=O)N=C(N)N)cc2c1-c1ccc(F)cc1 [Example 14]"
study_target = "UniProtKB P47898"
test_result = "0.001 to 0.03 µM"

[[record]]
compound = "N#Cc1ccc2ccc(C(=O)N=C(N)N)cc2c1C1CC1 [Example 21]"
study_target = "UniProtKB P47898"
test_result = "0.03 to 0.3 µM"

[[record]]
compound = "N#Cc1ccc2ccc(C(=O)N=C(N)N)cc2c1-c1c(F)cccc1F [Example 7]"
study_target = "UniProtKB P47898"
test_result = "0.001 to 0.03 µM"

[[record]]
compound = "N#Cc1ccc2ccc(C(=O)N=C(N)N)cc2c1-c1ccncc1Cl [Example 3]"
study_target = "UniProtKB P47898"
test_result = "0.03 to 0.3 µM"

[[record]]
compound = "N#Cc1ccc2ccc(C(=O)N=C(N)N)cc2c1-c1ccncc1F [Example 4]"
study_target = "UniProtKB P47898"
test_result = "0.03 to 0.3 µM"

